- Method Notes: in vitro
- Condition Parameters: human, Caco-2
Quantity: Papp B→A at 2 h, 10 μM

Prompt: Can you look up the measured Papp B→A at 2 h, 10 μM of CC(=O)CC(c1ccccc1)c1c(O)c2ccccc2oc1=O (stereo not shown) for me?
Completion: 29.8 ×10⁻⁶ cm/s

---

- Method Notes: in vitro permeability in Caco2 cells
- Condition Parameters: human, Caco-2
Quantity: efflux ratio at 2 h, 10 μM
# answer = number (no unit)

Prompt: Fill in: efflux ratio at 2 h, 10 μM of CNC(=C[N+](=O)[O-])NCCSCc1ccc(CN(C)C)o1 [Ranitidine] is ___
Completion: 3.36

---

- Method Notes: in vitro permeability in Caco2 cells
- Condition Parameters: human, Caco-2, A-B Permeability Ranking, Caco2 cells, assay conc. 10 μM
Quantity: Papp A→B at 2 h, 10 μM

Prompt: Given CNC(=C[N+](=O)[O-])NCCSCc1ccc(CN(C)C)o1 , state its recorded Papp A→B at 2 h, 10 μM.
Completion: < 1 ×10⁻⁶ cm/s

Prompt: Tell me the measured Papp A→B at 2 h, 10 μM of COC(=O)/C=C/c1cccc(N(Cc2ccc(-c3ccc(N(C)C)cc3)cc2)C(=O)C2CCCCC2)c1 , please.
Completion: < 1 ×10⁻⁶ cm/s

Prompt: Value lookup for Papp A→B at 2 h, 10 μM; key = [2H]C(c1ccc(-c2ccc3c(cnn3C)c2)cc1)N(C(=O)C1CCCCC1)c1cc(F)cc(/C=C/C(=O)OC)c1 (centres unmarked)
Completion: < 1 ×10⁻⁶ cm/s

Prompt: So what's the measured Papp A→B at 2 h, 10 μM for this one? [2H]C(c1ccc(-c2ccc3c(cnn3C)c2)cc1F)N(C(=O)C1CCCCC1)c1cccc(/C=C/C(=O)OC)c1 (centres unmarked)
Completion: < 1 ×10⁻⁶ cm/s

Prompt: Given the entry [2H]C(c1ccc(-c2ccc(N(C)C)cc2)cc1)N(C(=O)[C@@H]1C[C@@H]2CC[C@H]1C2)c1cc(F)cc(/C=C/C(=O)OC)c1 (some centres unmarked) , report its measured Papp A→B at 2 h, 10 μM.
Completion: < 1 ×10⁻⁶ cm/s

---

- Method Notes: in vitro
- Condition Parameters: human, Caco-2, Mean Papp, A-B
Quantity: Papp A→B at 2 h, 10 μM (×10⁻⁶ cm/s)
All answers are understood in ×10⁻⁶ cm/s, so give the number only.

Prompt: # get_value(readout='Papp A→B at 2 h, 10 μM', item= CC(=O)CC(c1ccccc1)c1c(O)c2ccccc2oc1=O (stereo not shown) )
Completion: 42.8

Origin of values: patent US20180000768A1
